- procedure_text: Absorption and photoluminescence (quantum yield, lifetime, q)
- Type: physicochemical
- condition_parameters: luminescence quantum yield in DMSO
Short version: ΦDMSO (%) at least 50% is Fulfilled, less is Not fulfilled.

compound: CC[C@@H]1CN(CC(=O)[O-])[C@H](CC)CN(Cc2cc(C#Cc3c(OC)cc(OC)cc3OC)cc(P(C)(=O)[O-])n2)[C@H](CC)CN(CC(=O)[O-])[C@H](CC)CN1CC(=O)[O-].[Eu+3] [Complex 9]
class_assignment: Fulfilled
--
compound: COc1cc(OC)c(C#Cc2cc(CN3C[C@H](CC(C)C)N(CC(=O)[O-])C[C@H](CC(C)C)N(CC(=O)[O-])C[C@H](CC(C)C)N(CC(=O)[O-])C[C@@H]3CC(C)C)nc(P(C)(=O)[O-])c2)c(OC)c1.[Eu+3] [Complex 10]
class_assignment: Not fulfilled
--
compound: COc1cc(OC)c(C#Cc2cc(CN3CC(Cc4ccccc4)N(CC(=O)[O-])CC(Cc4ccccc4)N(CC(=O)[O-])CC(Cc4ccccc4)N(CC(=O)[O-])CC3Cc3ccccc3)nc(P(C)(=O)[O-])c2)c(OC)c1.[Eu+3] (stereo not drawn) [Complex 11]
class_assignment: Not fulfilled
--
compound: COc1cc(OC)c(C#Cc2cc(CN3CCN(CC(=O)[O-])CCN(CC(=O)[O-])CCN(CC(=O)[O-])CC3)nc(P(C)(=O)[O-])c2)c(OC)c1.[Eu+3] [Complex 7]
class_assignment: Not fulfilled

Reference source for all entries: patent US11357873B2
